src = PubChem BioAssay AID1274

target: Neutrophil cytosol factor 1 (Homo sapiens); experiment: blockers of p47phox binding to p22phox – biochemical, uHTS, NADPH oxidase regulatory subunit, primary screen (AID 1274); details: p47phox/p22phox peptide binding, fluorescence polarization, 2 h; at 24.7 µM; stronger effect = higher value;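 note: 0% = p47phox with labelled peptide and 100% = labelled peptide alone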
Screen size: about 220,000 compounds; about 1,100 (0.5%) were called active. Many of the other results were omitted from the sample, so actives are more common in it than they were.
inhibition values, listed per item
Respond numerically; units are % and should not be typed.

// worked examples, inhibition included
{"Smiles repr": "Cc1ccc(Nc2nc(Cl)c(C=O)s2)cc1", "Assay target": "Neutrophil cytosol factor 1 (Homo sapiens)", "Unit info": "%", "inhibition": -45}
{"Smiles repr": "CC(C)(C)NC(=O)/C(=C/c1cccnc1)NC(=O)c1ccco1", "Assay target": "Neutrophil cytosol factor 1 (Homo sapiens)", "Unit info": "%", "inhibition": -7.92}
{"Smiles repr": "Cc1cc(C)c2nc(-c3ccco3)cc(C(=O)O)c2c1", "Assay target": "Neutrophil cytosol factor 1 (Homo sapiens)", "Unit info": "%", "inhibition": -9.96}

Sample CCn1c(CNS(=O)(=O)c2ccc(Cl)cc2)n[nH]c1=S ; inhibition observed: -6.22

Entry Cc1cc(C)c2nc3nc(C)cc(C)c3c(N)c2c1 ; inhibition = 35.3

compound CCN(CC)CCCN=Cc1c(O)n(-c2ccc(C)cc2)c(=O)c2ccccc12 , inhibition observed: 111
